Test: Time course tissue distribution / pharmacokinetic study in mice
Type: in vivo, female FVB mice
Conditions: female, FVB, mouse, kidney, po, 60 mg/kg
reported.endpoint: half-life (h)
Response body: numeric value in h, unit text excluded.

Ask | Quick one: half-life of `CS(=O)(=O)CCNCc1ccc(-c2ccc3ncnc(Nc4ccc(OCc5cccc(F)c5)c(Cl)c4)c3c2)o1` ?
Reply | 3.57

---

Assay: Time course tissue distribution / pharmacokinetic study in mice
Format: in vivo, female FVB mice
Conditions: female, FVB, mouse, brain, po, 30 mg/kg
reported.endpoint: AUC(0-t) (µM·h)
Response body: numeric value in µM·h, unit text excluded.

Ask | Quick one: AUC(0-t) of CS(=O)(=O)CCNCc1ccc(-c2ccc3ncnc(Nc4ccc(OCc5cccc(F)c5)c(Cl)c4)c3c2)o1 [lapatinib] ?
Reply | 0.441
